Reported clearance by item:
- Method notes: Pharmacokinetic evaluation in C57BL/6 mice after intravenous and oral administration
- Type: in vivo
- Condition context: male, mouse, plasma, IV 1 mg/kg, read-out: clearance CL
Just the number please, in mL/min/kg, no unit attached.

Molecule	clearance [mL/min/kg]
N[C@H]1CC[C@H](c2cc(C3(CN[C@@H]4C[C@H]4c4ccccc4)CC3)no2)CC1	104
N#Cc1ccc(-c2nc(C3(CN[C@H]4CC4c4ccccc4)CC3)no2)cc1 (stereo partly shown)	21.9
O=C(O)C12CCC(c3nc(C4(CN[C@H]5CC5c5ccccc5)CC4)no3)(CC1)CC2 (stereo partly shown)	9.9
N[C@H]1CC[C@H](c2nc(C3(CN[C@@H]4C[C@H]4c4ccccc4)CC3)no2)CC1	92
O=C(O)C1(CN2CCC(c3nc(C4(CN[C@@H]5C[C@H]5c5ccccc5)CC4)no3)CC2)CCC1	62.4

### Prompt Recall and state the measured clearance for "N[C@H]1CC[C@@H](c2nc(C3(CN[C@@H]4C[C@H]4c4ccccc4)CC3)no2)CC1" .
### Response 108

### Prompt Answer with the recorded clearance for the molecule listed here: O=C(O)c1ccc(CN2CCC(c3nc(C4(CN[C@@H]5CC5c5ccccc5)CC4)no3)CC2)cc1 (stereo partly shown)
### Response 43.4
